Assay: Pharmacokinetic analysis (intravenous and oral), Method B9
Type: in vivo
Settings: Oral, 8 mg/kg
value-kind: F (%)
Value expressed in %; do not type the unit.

Recorded F, per entry:
CC(C)[C@@H]1NCC2CCc3cccc(c3O2)CCCNC(=O)[C@@H](Cc2ccccc2)NC(=O)[C@H](C(C)O)N(C)C1=O (stereo partly shown) [Compound 1777]    13
CC(C)[C@@H]1NCCOc2ccccc2C2CCC(C2)NC(=O)[C@@H](Cc2ccccc2)NC(=O)[C@H](C(C)O)N(C)C1=O (stereo partly shown) [Compound 1848]    11
CC(C)[C@@H]1NCCOc2cccc(F)c2C#CCNC(=O)[C@@H](Cc2ccccc2)NC(=O)[C@H](C(C)O)N(C)C1=O (stereo partly shown) [Compound 1929]    42

As a next step, examine the molecule that follows.
Exercise: Input CC(C)[C@@H]1NCCOc2ccccc2C#CCNC(=O)[C@@H](Cc2ccccc2)NC(=O)[C@H](C(C)O)N(C)C1=O (stereo partly shown) [Compound 1712] , output reported F.
Solution: 15

---

Biological target: human ghrelin receptor (GRLN, growth hormone secretagogue receptor, hGHS-R1a) (Homo sapiens)
Construct: purchased PerkinElmer BioSignal #RBHGHSM, lot#1887; host or cells: HEK-293 cells, stably transfected (membranes)
Sequence (Q92847 whole entry): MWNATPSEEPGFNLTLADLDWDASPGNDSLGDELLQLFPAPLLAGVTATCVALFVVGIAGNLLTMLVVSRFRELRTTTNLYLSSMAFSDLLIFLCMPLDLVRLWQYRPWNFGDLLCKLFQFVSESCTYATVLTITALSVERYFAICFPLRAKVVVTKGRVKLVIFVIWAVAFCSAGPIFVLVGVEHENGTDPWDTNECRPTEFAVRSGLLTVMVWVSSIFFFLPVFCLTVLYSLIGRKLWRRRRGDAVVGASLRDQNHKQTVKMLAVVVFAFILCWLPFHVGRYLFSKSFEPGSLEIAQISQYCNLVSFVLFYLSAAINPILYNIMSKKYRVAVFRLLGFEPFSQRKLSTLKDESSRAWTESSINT
Test: Competitive radioligand binding assay (ghrelin receptor), Method B1
Each entry below carries its reported Ki.

Exercise: Input CCC(C)[C@@H]1NCCOc2ccccc2/C=C/CNC(=O)[C@@H](Cc2cccc(F)c2)NC(=O)[C@H](C(C)O)N(C)C1=O (stereo partly shown) , output reported Ki.
Solution: 1 to 10 nM

Exercise: Input CC(C)[C@@H]1NCCOc2ccccc2/C=C/CNC(=O)[C@@H](Cc2ccccc2)NC(=O)[C@H](C(C)O)N(C)C1=O (stereo partly shown) , output reported Ki.
Solution: 1 to 10 nM

Exercise: Input CCC(C)[C@@H]1NCCOc2ccccc2CC[C@@H](C)NC(=O)[C@@H](Cc2ccccc2)NC(=O)[C@H](C(C)O)N(C)C1=O (stereo partly shown) , output reported Ki.
Solution: 1 to 10 nM

Exercise: Input CCC(C)[C@@H]1NCCOc2ccccc2C[C@H](O)CNC(=O)[C@@H](Cc2ccccc2)NC(=O)[C@H](C(C)O)N(C)C1=O (stereo partly shown) , output reported Ki.
Solution: 10 to 100 nM

Exercise: Input CC[C@H](C)[C@@H]1NC/C=C/c2ccccc2CCCNC(=O)[C@@H](Cc2ccccc2)NC(=O)[C@H]([C@H](C)O)N(C)C1=O , output reported Ki.
Solution: 100 to 500 nM

Exercise: Input CCC(C)[C@@H]1NCCOc2cc(F)ccc2CCCNC(=O)[C@@H](Cc2ccccc2)NC(=O)[C@H](C(C)O)N(C)C1=O (stereo partly shown) , output reported Ki.
Solution: 1 to 10 nM

Exercise: Input CCC(C)[C@@H]1NCCOc2ccccc2/C=C/CNC(=O)[C@@H](Cc2ccc(C(F)(F)F)cc2)NC(=O)[C@H](C(C)O)N(C)C1=O (stereo partly shown) , output reported Ki.
Solution: 1 to 10 nM

---

Experiment: Pharmacokinetic analysis (intravenous and oral), Method B9
Format: in vivo
Settings: plasma; Oral, 8 mg/kg; read-out: Cmax
value-kind: Cmax (ng/mL)
Value expressed in ng/mL; do not type the unit.

Exercise: Input CC(C)[C@@H]1NCCOc2ccccc2C2CCC(C2)NC(=O)[C@@H](Cc2ccccc2)NC(=O)[C@H](C(C)O)N(C)C1=O (stereo partly drawn) [Compound 1848] , output reported Cmax.
Solution: 421

Exercise: Input CC(C)[C@@H]1NCCOc2ccccc2C#CCNC(=O)[C@@H](Cc2ccccc2)NC(=O)[C@H](C(C)O)N(C)C1=O (stereo partly drawn) [Compound 1712] , output reported Cmax.
Solution: 352

Exercise: Input CC(C)[C@@H]1NCCOc2cccc(F)c2C#CCNC(=O)[C@@H](Cc2ccccc2)NC(=O)[C@H](C(C)O)N(C)C1=O (stereo partly drawn) [Compound 1929] , output reported Cmax.
Solution: 628
